Numbers sourced from PubChem BioAssay (NCI).

For each record, write down the corresponding TGI.
test system: OVCAR-8 ovarian; assay: NCI tumour cell line growth inhibition, 48 h
Answers are plain numbers, in µM.

See these solved cases before continuing.
- C=CCCCCCCCCCOC1C=CC(O)C(CO)O1 (centres undefined): 37.4
- O=C1C=C2SC3C[C@@]24CC1(O)[N+]1=c2c4c(c(O)c4c2=C(C=N4)CC1)N3: 3.63
- COC(=O)CC(=O)OC1C[C@@H]2CCC3C(C)(C)CCC[C@]3(C)C23CC[C@@]1(C)C3 (some centres undefined): 36.8

// switching to the query compound
Identify measured TGI obtained with OVCAR-8 ovarian for CCNC(=O)O/N=C1\CCC2[C@@H]3CC=C4C[C@@H](OC(=O)NCC)CC[C@]4(C)C3CC[C@]12C (some centres undefined) .
18.2

====

tested on: MDA-MB-231 breast; assay: NCI tumour cell line growth inhibition, 48 h
For each record, write down the corresponding TGI.

See these solved cases before continuing.
- CN(CCNC(=O)c1nn(C)c2c1Cc1ccccc1-2)CCNC(=O)c1nn(C)c2c1Cc1ccccc1-2: 38.1 µM
- CNC(=O)c1sc(-n2cnc3cc(OC)c(OC)cc32)cc1OCc1ccccc1C(F)(F)F: > 25 µM
- O=C(c1ccccc1)c1nn(-c2cccc(Cl)c2)c2nc3nc(-c4ccccc4)cc(=O)n3nc12: > 25 µM
- C=C1C(=O)C23C(O)CC4C(C)(C)CCC(O)C4(C)C2CC(OC(C)=O)C1[C@H]3O (stereo partly specified): 14.6 µM
- O=C1c2ccccc2-c2cn(Cc3ccccc3)c3cccc(c23)C1c1cccnc1 (stereo unspecified): > 50 µM

Return TGI for the following molecule: `C=CCN(C(C)=O)c1cc(OCc2ccccc2)c2c(c1)c(C)cn2S(=O)(=O)c1ccccc1`
> 70.8 µM

====

test system: T-47D breast; experiment: NCI tumour cell line growth inhibition, 48 h
For each record, write down the corresponding GI50.

// input: 5 compounds below; output: GI50 for each
1. COC(=O)c1sc(-n2cnc3cc(OC)c(OC)cc32)cc1OCc1ccccc1C(F)(F)F
2. O=C1c2ccccc2-c2cn(Cc3ccccc3)c3cccc(c23)C1c1cccnc1 (stereo not given)
3. Nc1nc(SCC#CCCl)c2[nH]cnc2n1
4. Cc1ccc2nc(CN(CCN(Cc3nc4ccc(C)cc4[nH]3)Cc3nc4ccc(C)cc4[nH]3)Cc3nc4ccc(C)cc4[nH]3)[nH]c2c1
5. CC/C(=C/c1ccc(OC)cc1)[N+](=O)[O-]

> 25000 nM
2320 nM
5260 nM
1710 nM
1820 nM

====

tested on: HT29 colon; test: NCI tumour cell line growth inhibition, 48 h
reported-endpoint: TGI

See these solved cases before continuing.
* C[N+]1(CC[N+]2(C)CCCC2c2cccnc2)CCCC1c1cccnc1 (stereo not given) | > 100 µM
* CC(=O)CC(O)(C(F)(F)Cl)C(F)(Cl)Cl (stereo not given) | > 10 µM
* O=[N+]([O-])c1ccc(N=P(c2ccccc2)(c2ccccc2)c2ccccc2)n2nnnc12 | > 100 µM
* COC1=CC(=O)[C@@]2(C)C(C)[C@H](c3ccccc3)[C@H]2C1=O (stereo not given in full) | > 100 µM
* COC(=O)c1sc(-n2cnc3cc(OC)c(OC)cc32)cc1OCc1ccccc1C(F)(F)F | > 25 µM
* CCOC(=O)c1cccc(N=NNc2cccc(C(=O)OCC)c2)c1 | > 100 µM

// input: 3 compounds below; output: TGI for each
1. N#CCCN(C(=O)Nc1ccc(NC(=O)N(CCC#N)c2ccccc2)cc1)c1ccccc1
2. Cc1ccc([N+](=O)[O-])cc1S(=O)(=O)Nc1ccc(C2=NN(S(=O)(=O)c3cc([N+](=O)[O-])ccc3C)C(c3ccccc3O)C2)cc1 (stereo not given)
3. CCC(C)C(NC(=O)c1cccc2c(=O)c3ccccc3[nH]c12)C(=O)O (stereo not given)

1: > 100 µM; 2: > 100 µM; 3: > 100 µM

Return TGI for the following compound: `Cc1nc2nnc(CCCCCCCCc3nnc4nc(C)[nH]n34)n2[nH]1`
> 100 µM

====

tested on: CCRF-CEM leukemia; assay: NCI tumour cell line growth inhibition, 48 h
reported-endpoint: TGI (µM)
Answers are plain numbers, in µM.

See these solved cases before continuing.
• C=C1C(=O)C23C(O)CC4C(C)(C)CCC(O)C4(C)C2CC(OC(C)=O)C1[C@H]3O (some centres undefined) = 2.7
• CC/C(=C/c1ccc(OC)cc1)[N+](=O)[O-] = 5.72
• COc1cc(C2c3cc4c(cc3[C@@H](Nc3ccc(F)cc3)C3COC(=O)[C@H]23)OCO4)cc(OC)c1O (some centres undefined) = 19.6

// switching to the query compound
Return TGI for the following compound: `CCOC(=O)CN(CC)C(=O)NC12CC3CC(CC(C3)C1)C2`
631

====

tested on: SR leukemia; assay: NCI tumour cell line growth inhibition, 48 h
reported-endpoint: TGI

See these solved cases before continuing.
• Cc1cnc(C(=O)Nc2nc3ccc(S(=O)(=O)Nc4ccc(C(C)(C)C)cc4)cc3[nH]2)cn1 = 12.5 µM
• COc1cc(F)c(F)c(Nc2ccc(I)cc2F)c1NS(=O)(=O)C1(CC(O)CO)CC1 (stereo not drawn) = > 69.4 µM
• CCCCCCCC(=O)NC(C)(C)C(=O)NCC(=O)NC(CC(C)C)C(=O)NC(C)(C)C(=O)NCC(=O)NCC(=O)NC(CC(C)C)C(=O)NC(C)(C)C(=O)NCC(=O)NC(C(=O)NC(CO)CC(C)C)C(C)CC (stereo not drawn) = 8.63 µM

// input: 5 compounds below; output: TGI for each
1. COc1cc(C(=O)/C=C/c2c[nH]c3ccccc23)cc(OC)c1OC
2. CC(=O)OC1COC(N2C(=O)C(=O)c3ccccc32)C(OC(C)=O)C1OC(C)=O (stereo not drawn)
3. COc1ccc(N2C(=O)[C@@H]3[C@@H]4CC(C)CC[C@@H]4c4c([nH]c5ccccc45)[C@@H]3C2=O)cc1 (stereo partly drawn)
4. O=C(/C=C/c1ccco1)Nc1ncc(Cc2cc(Cl)ccc2Cl)s1
5. N#Cc1sc2nc3c(c(-c4ccccc4)c2c1N)CCCC3

["13.8 µM", "> 100 µM", "> 25.9 µM", "> 100 µM", "> 100 µM"]

====

test system: HT29 colon; experiment: NCI tumour cell line growth inhibition, 48 h
For each record, write down the corresponding TGI.

• CC(=O)O[C@H]1CSC[C@@H](OC(C)=O)C1[N+](=O)[O-] (some centres not stated) = > 100 µM
• Clc1ccc(Cc2nc3cc4ccccc4cc3[nH]2)cc1Cl = 28.5 µM
• COC(OC)c1cccc2c1C(=O)CCC1(CC2)OCCCCO1 = > 100 µM
• O=C(CC(C(=O)c1ccsc1)c1cccs1)c1cccs1 (configuration not stated) = > 100 µM
• CC(=O)N(C(=O)CC(=O)N1N=C(C)C(N=Nc2cccc([N+](=O)[O-])c2)C1=O)c1ccc(Cl)cc1 (configuration not stated) = > 10 µM
• COc1ccc(N2C(=O)[C@@H]3[C@@H]4CC(C)CC[C@@H]4c4c([nH]c5ccccc45)[C@@H]3C2=O)cc1 (some centres not stated) = > 100 µM
• COc1ccc(/C(=C(\c2ccccc2)[N+](=O)[O-])c2ccc(OCCN3CCCC3)cc2)cc1 = 1.82 µM
• COc1ccc2c(Cl)cc(NC(=S)Nc3ccccc3)nc2c1 = 44.4 µM
• CCOC(=O)c1c(CN2CCCCC2)nc2ccc(Cl)cc2c1-c1ccccc1 = 54.2 µM
• CSCSCC(CO)NC(=O)/C=C/c1c(C)[nH]c(=O)[nH]c1=O (configuration not stated) = > 100 µM

// input: 8 compounds below; output: TGI for each
1. Cc1c(CCCl)c(Cl)n2c(nc3ccccc32)c1C#N
2. COc1ccc(/C=C\c2cc(OC)c(OC)c(OC)c2)cc1NC(=O)/C=C/c1cc(OC)c(OC)c(OC)c1
3. COC1=CC(=O)C2(C=C1OC)OC[C@H]1Oc3c(ccc4c3C=CC(C)(C)O4)C(=O)[C@H]12 (some centres not stated)
4. CN(N=O)c1ccc(/C=C/c2ccnc3ccccc23)cc1
5. O=C(c1ccccc1)c1nn(-c2cccc(Cl)c2)c2nc3nc(-c4ccccc4)cc(=O)n3nc12
6. COC(=O)[C@]12CC[C@@H](C)[C@H](C)[C@@H]1C1=CC[C@@H]3[C@@]4(C)C[C@@H](OC(C)=O)[C@H](OC(C)=O)[C@@](C)(COC(C)=O)[C@@H]4[C@H](O)C[C@@]3(C)[C@]1(C)CC2
7. CCc1ccc([OH2+])c(C(=O)[O-])c1.CCc1ccc([OH2+])c(C(=O)[O-])c1.CCc1ccc([OH2+])c(C(=O)[O-])c1.CCc1ccc([OH2+])c(C(=O)[O-])c1.[Cu+2].[Cu+2]
8. O=C1c2ccc3c4c(ccc(c24)C(=O)N1CCCCO)C(=O)N(CCCCO)C3=O

1. 4.35 µM
2. > 100 µM
3. > 100 µM
4. > 100 µM
5. > 25 µM
6. > 100 µM
7. > 100 µM
8. 14.3 µM

// input: 4 compounds below; output: TGI for each
1. Cc1ccc2c(c1)CC1(Cc3cc(C)ccc3C1=O)C2=O
2. COc1oc(C2C/C(=C/C(C)=C/C(C)=C/C(C)=C/c3ccc([N+](=O)[O-])cc3)CO2)c(C)c(=O)c1C (configuration not stated)
3. CCOC(=O)C1=C(C)N(NC(=O)Nc2ccccc2)C2(N)N(NC(=O)Nc3ccccc3)C(C)=C(C(=O)OCC)C12C#N (configuration not stated)
4. C1CCC(CC2CCC(NC3=NCCO3)CC2)CC1 (configuration not stated)

["> 100 µM", "> 50 µM", "38.1 µM", "17.1 µM"]

// input: 8 compounds below; output: TGI for each
1. COc1ccc(/C=C(\C#N)c2ccccn2)cc1OC
2. COc1cccc(C2c3cc4c(cc3OC(NNS(=O)(=O)c3ccc(C)cc3)C2C)OCO4)c1O (configuration not stated)
3. C#Cc1c(C)c(/C=C/C(C)=C\C(=O)OC)n(C)c1C
4. C=CCN(C(C)=O)c1cc(OCc2ccccc2)c2c(c1)c(C)cn2S(=O)(=O)c1ccccc1
5. Cc1csc(NCc2ccc(Cl)cc2)n1
6. CC1(C)OCC(/C=C\C(O)CC2(C)OCCO2)CO1 (configuration not stated)
7. O=C(CC1(O)C(=O)Nc2ccc(Cl)cc21)c1ccc(C(=O)NCC2CCC3(CC2)OOC2(CCCCC2)OO3)cc1 (configuration not stated)
8. Cc1ccc(NC(c2ccccc2)P(=O)(c2ccccc2)c2ccccc2)cc1 (configuration not stated)

> 100 µM
47.1 µM
> 100 µM
> 100 µM
> 100 µM
> 100 µM
11.2 µM
> 100 µM

// input: 7 compounds below; output: TGI for each
1. O=C(OC1C#CCSCC#C/C=C\1)c1ccc2c(c1)C(=O)c1ccccc1C2=O (configuration not stated)
2. Nc1nc(SCC#CCCl)c2[nH]cnc2n1
3. CC[C@@]1(O)C(=O)OCc2c1cc1n(c2=O)Cc2c-1nc1ccc(N)cc1c2CC[Si](C)(C)C
4. C#C[C@]1(O)CC[C@H]2[C@@H]3CCC4=C/C(=N/OC(=O)c5cccc6cc7ccccc7nc56)CC[C@@H]4[C@H]3CC[C@@]21CC
5. COc1cc2c(c3oc4c(O)cccc4c(=O)c13)CC(C(C)(O)CCl)O2 (configuration not stated)
6. C=CC[PH+](c1ccccc1)c1ccccc1.C=CC[PH+](c1ccccc1)c1ccccc1.[Pt+2].[S-]c1nc2ccccc2[nH]1.[S-]c1nc2ccccc2[nH]1
7. CC(=O)OC1CCC2(C)C(CCC3C2CCC2(C)C(c4ccc(=O)oc4)C(OC(C)=O)CC32O)C1 (configuration not stated)

1: > 100 µM; 2: 18.1 µM; 3: 11.6 µM; 4: > 100 µM; 5: 15.9 µM; 6: > 100 µM; 7: 0.527 µM
